system: KB; test: Cytotoxicity against human KB cells by MTT assay; assay type: functional, cell-based

{"columns": ["molecule", "target", "IC50"],
 "data": [
  ["CC(=O)N[C@H]1[C@H](O[C@H]2CC[C@]3(C)[C@H]4CC=C5[C@@H]6CC(C)(C)[C@@H](O)C[C@]6(C(=O)O)[C@H](O)C[C@@]5(C)[C@]4(C)CC[C@H]3C2(C)C)O[C@H](CO[C@@H]2OC[C@H](O)[C@H](O)[C@H]2O[C@@H]2OC[C@@H](O)[C@H](O)[C@H]2O)[C@@H](O)[C@@H]1O [PROSAPOGENIN 2]", "KB", "> 10 µg/mL"],
  ["CC(=O)N[C@H]1[C@H](O[C@H]2CC[C@]3(C)[C@H]4CC=C5[C@@H]6CC(C)(C)[C@@H]7C[C@]6(C(=O)O7)[C@H](O)C[C@@]5(C)[C@]4(C)CC[C@H]3C2(C)C)O[C@H](CO[C@@H]2OC[C@H](O)[C@H](O)[C@H]2O[C@@H]2OC[C@@H](O)[C@H](O)[C@H]2O)[C@@H](O)[C@@H]1O [PROSAPOGENIN 4]", "KB", "> 10 µg/mL"]
]}
